Exercise: for every item that follows, state its recorded activity at 3 µM.
System: P. berghei-ANKA-GFP-LucCON liver stage parasites in HepG2-A16-CD81EGFP cells
Run description: P. berghei liver stage Pb-Luc assay, Method 1 (UCSD, 1536-well); further: reference of the scale not given here
Type: cell-based, Plasmodium berghei
Run parameters: Plasmodium berghei, 48 h, nominal 3 uM (10 mM stock); 4.5 uM for 15 mM, 3.6 uM for 12 mM, 6 uM for 20 mM stock; average of 2 wells, 1536-well plate; repeat 1; read-out: Pb-Luc signal, 3 uM, repeat 1
Answers are plain numbers, in %.

Worked set:
* Cc1ccc([S+](=O)([O-])N2CCC(OC3CCN(Cc4ccccc4)CC3)CC2)c(C)c1 | 78.2
* COc1ccccc1NC(=O)N1CCOc2ccc(CN3CCc4ccccc4C3)cc2C1 | 110
* Cn1nc(C(=O)NCC(=O)N2CCCCCCNC(=O)CC2c2ccccc2)c2ccccc21 (centres unmarked) | 105
* COc1ccc(CN2CCCn3nc(C)c(-c4ccccc4Oc4ccccc4)c32)cc1O | 83.6
* COc1cccc([C@@H]2CCN(Cc3[nH]c4ccccc4c3C)C[C@H]2O)c1 | 85.2
* CN1CCN(c2ccc3ncc(Nc4ccccc4-c4ccccc4)n3n2)CC1 | 50.6

List the reported activity at 3 µM of each compound below.
1. COc1ccccc1CN1COc2ccc3c(oc(=O)c4ccccc43)c2C1
2. CC1=C(C(=O)Nc2ccc(C)cc2C)C(c2ccc([N+](=O)[O-])cc2)n2ncc(C(=O)Nc3ccc(F)cc3)c2N1 (centres unmarked)
3. COc1ccc(-n2nc(C)c([C@@H]3C=C[C@@H](NCc4cccc(Cl)c4)C3)c2C)cc1

1. 73.3
2. 80.3
3. 11.5

List the reported activity at 3 µM of each compound below.
1. O=C(Nc1ccc2c(N3CCCC3)ncnc2c1)c1cccc(Br)c1
2. COc1cc2c(cc1Oc1cccc(N(C)C)c1)NC(=O)C21CCN(c2cnccn2)CC1
3. Cc1nn2c(c1-c1ccccc1-c1ccccc1)N(Cc1ccc(O)cc1)CCC2
4. CCC(CC)c1cc([C@H]2CN3CC[C@H]2C[C@@H]3CN[S+](=O)([O-])c2ccccc2C#N)nc(-c2ccncc2)n1
5. COc1ccc(N2CCN(c3cc(C4CC(N)C4)nc(N)n3)CC2(C)C)cc1 (centres unmarked)
6. CN1CCN(C(=O)c2ccc3c(c2)N(Cc2ccc(C(F)(F)F)cc2)C(=O)c2ccccc2S3)CC1
7. CCc1ccc(C2Sc3ccccc3N=C3C2=C(O)c2ccccc23)cc1 (centres unmarked)

1: 34.5; 2: 35; 3: 15.6; 4: 49; 5: 76.6; 6: 91; 7: 2.42

List the reported activity at 3 µM of each compound below.
1. CCC(CC)c1cc([C@H]2CN3CC[C@H]2C[C@@H]3CN[S+](=O)([O-])c2cccs2)nc(-c2ccncc2)n1
2. COc1ccccc1Nc1cnc2ccc(-c3ccc(OC)c(OC)c3)nn12
3. CCN1CCN(C(=O)c2ccc3c(c2)N(Cc2ccc(Cl)cc2)C(=O)c2ccccc2[S+]3[O-])CC1 (centres unmarked)
4. Fc1ccc(N2CCCN(C[C@H]3[C@@H]4CNC[C@@H]43)CC2)cc1

1: 37.8; 2: 1.18; 3: 83.2; 4: 53.5

List the reported activity at 3 µM of each compound below.
1. CC1CCCN(Cc2c(O)ccc3c(=O)c(-c4ccccc4Cl)c(C(F)(F)F)oc23)C1 (centres unmarked)
2. COc1ccc(-c2ccc3ncc(Nc4ccc(C(N)=O)cc4)n3n2)cc1OC
3. CC1=C[C@@H](CN(C)C)[C@H](C(C)C)C[C@H]1Cc1nc2ncc(Cl)cc2[nH]1

1. 62.6
2. 2.42
3. 59.7

---

Run description: in vitro
Run parameters: human, HepG2-A16-CD81EGFP cells, uninfected
Recorded endpoint: viability at 48 h, 3 µM (%)
Numbers only, in %.

* Cc1ccc(C(=O)Nc2nc(-c3ccccn3)cs2)cc1[S+](=O)([O-])N1CCOCC1.O=C(O)C(F)(F)F | 31
* CCOC(=O)c1c[nH]c2c3c(ccc2c1=O)CCCC3 | 106
* CCC(CC)c1cc([C@H]2CN3CC[C@H]2C[C@@H]3CNC(=O)COc2ccccc2)nc(-c2ccncc2)n1 | 101
* CCCOc1ccc(CCc2nnc(S)n2Cc2ccccc2)cc1 | 100
* Cn1nc(C(=O)NCC(=O)N2CCCCCCNC(=O)CC2c2ccccc2)c2ccccc21 (centres unmarked) | 106
* O=C1NC(=S)S/C1=C\C=C\c1ccc([N+](=O)[O-])o1 | 101

List the reported viability at 48 h, 3 µM of each molecule below.
1. CN1c2cc(C(=O)Nc3ccc(C(F)(F)F)cc3)ccc2C(=O)N2CCCCC21 (centres unmarked)
2. C=C(C)CSc1nc2sc3c(c2c(=O)n1-c1ccc(OC)cc1)CCN(C)C3

110
105

---

System: HepG2-A16-CD81EGFP cells
Run parameters: nominal 3 uM (10 mM stock); 4.5 uM for 15 mM, 3.6 uM for 12 mM, 6 uM for 20 mM stock; average of 2 wells; repeat 2
Recorded endpoint: HepG2 viability signal, 3 uM, repeat 2 (%)
One number for each entry, in %.

- CC1=C(C(=O)Nc2ccc(C)cc2C)C(c2ccc(Br)cc2)n2ncc(C(=O)Nc3cccc(C)c3)c2N1 (centres unmarked) [NCGC00126300-01]: 90.59
- O=C1NCc2ccccc2CC12CCCN(Cc1ccccc1)C2 (centres unmarked) [NCGC00377595-01]: 104.13
- CCN1CCN(c2cc(C)c3cc(NC(=O)c4cc(OC)c(OC)c(OC)c4)ccc3n2)CC1 [NCGC00137500-01]: 106.17

List the reported HepG2 viability signal, 3 uM, repeat 2 of each molecule below.
1. C[C@H]1[C@@H]2[C@H]3OC(=O)[C@@H](C)[C@@H]3CC[C@@]2(C)CC[C@@H]1NC(=O)CC(C)(C)C [NCGC00392703-01]
2. CN1CCN(C(=O)c2ccc3c(c2)N(Cc2ccc(C(F)(F)F)cc2)C(=O)c2ccccc2S3)CC1 [NCGC00108242-01]
3. N=c1n(CCN2CCCCC2)c2ccccc2n1CC(O)COc1ccc(Cl)cc1Cl (centres unmarked) [NCGC00100256-01]
4. CC1=C(C(=O)Nc2ccc(C)cc2C)C(c2cc(Br)ccc2F)n2ncc(C(=O)Nc3ccc(C)cc3)c2N1 (centres unmarked) [NCGC00126328-01]

1: 102.42; 2: 103.88; 3: 101.25; 4: 99.55

What the record says about Cc1ccc2oc(=O)c3cnn(CC(=O)Nc4cccc(C(F)(F)F)c4)c3c2c1 [NCGC00110933-01] : HepG2 viability signal, 3 uM, repeat 2 is 101.21

---

Exercise: for every item that follows, state its recorded viability at 48 h, 3 µM.
Run description: in vitro
Run parameters: human, HepG2-A16-CD81EGFP cells, uninfected
Give bare numbers, in %.

- CC(C)CN(Cc1cc(=O)oc2cc(-c3ccccc3)c(O)cc12)CC(C)C: 101
- COc1cc(C(=O)NC2CCCc3c2[nH]c2c(Cl)cccc32)cc(OC)c1OC (stereo not shown): 98.2
- Cc1cc(C)cc(/N=C/c2[nH]c3ccc(Br)c(Cl)c3c2O)c1: 99

What the record says about `N=c1c2c(n(Cc3ccc(F)cc3)c3c1CCC3)CCCC2` : viability at 48 h, 3 µM is 81

---

Exercise: for every item that follows, state its recorded viability at 48 h, 1 µM.
Run description: in vitro
Run parameters: human, HepG2-A16-CD81EGFP cells, uninfected
Give bare numbers, in %.

List the reported viability at 48 h, 1 µM of each compound below.
1. CCOC(=O)c1c(-c2ccccc2)oc2ccc(O)c(CN3CCCC3)c12 [MLS000530619-01]
2. Cc1[nH]c2c(C)cccc2c(=O)c1Br [MLS000036254-01]
3. COc1ccccc1Nc1cnc2ccc(-c3ccc(OC)c(OC)c3)nn12 [NCGC00412573-01]
4. Clc1cccc(CN2CCc3c([nH]c4ccccc34)C2)c1Cl [MLS001164092-01]

1: 98.8; 2: 107; 3: 108; 4: 104

List the reported viability at 48 h, 1 µM of each compound below.
1. Cc1nn2c(c1-c1ccccc1-c1ccccc1)N(Cc1ccc(O)cc1)CCC2 [NCGC00420512-01]
2. COc1ccc(Cc2nnc(NC(=O)c3ccc(OC)cc3OC)s2)cc1 [MLS001211969-01]
3. CCC(C)c1ccc(O)c(NC(=O)c2cncc(Br)c2)c1 (stereo not shown) [MLS000062368-01]
4. O=C1NCc2ccccc2CC12CCCN(Cc1ccccc1)C2 (stereo not shown) [NCGC00377595-01]

1: 96.5; 2: 100; 3: 113; 4: 104

List the reported viability at 48 h, 1 µM of each compound below.
1. C=C(C)CSc1nc2sc3c(c2c(=O)n1-c1ccc(OC)cc1)CCN(C)C3 [MLS001173660-01]
2. CN1CCN(c2ccc3ncc(Nc4ccccc4-c4ccccc4)n3n2)CC1 [NCGC00412547-01]
3. COc1cccc(N=C(S)N2CCN(S(=O)(=O)c3ccc(F)cc3)CC2)c1 [MLS001230093-01]
4. CCC(=O)N1CCc2cc(Br)cc(S(=O)(=O)N3CCCC(C(=O)NC(C)(C)C)C3)c21 (stereo not shown) [MLS000937025-01]
5. COc1ccc(-c2noc(-c3cccn3CC(=O)Nc3ccccc3)n2)cc1F [NCGC00445500-01]
6. Cc1ccc2sc(N3CCN(C(=O)c4ccc([N+](=O)[O-])o4)CC3)nc2c1C [MLS001234068-01]

1: 106; 2: 96; 3: 91; 4: 98.3; 5: 103; 6: 111
